# Experiment notes: The compound was evaluated for inhibition of HIV-1 mutant […] recombinant reverse transcriptase
# key: entry, value: EC50

Solved cases below.
compound=Cc1cn([C@@H]2O[C@H](CO[Si](C)(C)C(C)(C)C)[C@@H](O[Si](C)(C)C(C)(C)C)[C@H]2O)c(=O)n(CC(=O)OCc2ccccc2)c1=O readout_name=EC50 experimental_value="> 50 µM"
compound=Cc1cn([C@@H]2O[C@H](CO[Si](C)(C)C(C)(C)C)[C@@H](O[Si](C)(C)C(C)(C)C)[C@H]2O[Si](C)(C)C(C)(C)C)c(=O)n(CC(=O)OCc2ccccc2)c1=O readout_name=EC50 experimental_value="> 10 µM"

Any idea what EC50 was measured for Cc1cn(C2CCC(CO[Si](C)(C)C(C)(C)C)O2)c(=O)n(CC(=O)OCc2ccccc2)c1=O (stereo not drawn) ?
> 250 µM

Reference source for all entries: BindingDB's records for doi:10.1016/s0960-894x(01)00635-7
